# protocolNotes: ACEA_AR_agonist_AUC_viability: ACEA Biosciences xCELLigence Real-Time Cell Analysis on Androgen Receptor Agonism for Viability (AID 2283775)
Inconclusive results are not listed. Calls of active or inactive are those of the source. Rule for the calls: active = hit-call score of the fitted dose curve at least 0.9, where 1 is the maximum; inconclusive = response in the unintended direction; inactive = score below 0.9.
Valid outcomes are listed here; reply with one: TRUE for active, FALSE for inactive

Take a look at these entries with their results.
INSERT INTO assay_data (compound, classlabel) VALUES
  ('CCC(C)(C)C(=O)OC1=C(c2ccc(Cl)cc2Cl)C(=O)OC12CCCCC2', 'TRUE'),
  ('COc1nn(CSP(=S)(OC)OC)c(=O)s1', 'TRUE'),
  ('O=C(O)C(F)(F)C(F)(F)C(F)(F)C(F)(F)C(F)(F)C(F)(F)C(F)(F)F', 'FALSE'),
  ('CCCN(CCOc1c(Cl)cc(Cl)cc1Cl)C(=O)n1ccnc1', 'TRUE'),
  ('O=[N+]([O-])c1c(Cl)c(Cl)c(Cl)c(Cl)c1Cl', 'TRUE');

// return assay outcome for `O=C1c2ccccc2C(=O)N1SC(Cl)(Cl)Cl`
TRUE

Field entry: O=S1OCC2C(CO1)C1(Cl)C(Cl)=C(Cl)C2(Cl)C1(Cl)Cl (stereo not drawn)
TRUE

Field entry: `CCN(CC)C(=O)SCc1ccc(Cl)cc1`
TRUE

---

# Read-out: Matrix Metallopeptidase 1 (MMP1), MMP1 (gene 4312)
# protocolNotes: BSK_BE3C_MMP1: BioMAP Diversity Plus: BE3C Assay for Matrix Metallopeptidase 1 (MMP1) Biomarker Activity (AID 2283024)
# conditionNotes: primary human bronchial epithelial cells; actives raise or lower the signal
Activity calls are given as the source filed them. The calls were made as follows: active = hit-call score of the fitted dose curve at least 0.9, where 1 is the maximum; inactive = score below 0.9.
Valid outcomes are listed here; reply with one: YES for active, NO for inactive

INSERT INTO measurements (molecule, classlabel) VALUES
  ('O=[N+]([O-])/N=C1\NCCN1Cc1ccc(Cl)nc1', 'NO');

// return assay outcome for `COc1cc(OC)nc(NC(=O)NS(=O)(=O)c2cc(NC=O)ccc2C(=O)N(C)C)n1`
NO

Field entry: `COC(=O)c1ccccc1CS(=O)(=O)NC(=O)Nc1nc(OC)cc(OC)n1`
NO

---

# protocolNotes: APR_HepG2_CellCycleArrest_72hr: Apredica 72-hour HepG2 Assay for Cell Cycle Arrest (AID 2282914)
# conditionNotes: high-content imaging, actives raise or lower the signal
Active and inactive are the calls of the source. The calls were made as follows: active = hit-call score of the fitted dose curve at least 0.9, where 1 is the maximum; inactive = score below 0.9.
Valid outcomes are listed here; reply with one: YES for active, NO for inactive

Take a look at these entries with their results.
INSERT INTO results (compound, classlabel) VALUES
  ('CCOc1nc(NC)nc(NC(=O)NS(=O)(=O)c2ccccc2C(=O)OC)n1', 'NO'),
  ('O=[N+]([O-])/N=C1\NCCN1Cc1ccc(Cl)nc1', 'NO'),
  ('CNC(=O)Oc1cccc(N=CN(C)C)c1', 'YES'),
  ('CN1CSC(=S)N(C)C1', 'YES'),
  ('CCc1ccc(C(=O)NN(C(=O)c2cc(C)cc(C)c2)C(C)(C)C)cc1', 'NO'),
  ('COP(=S)(OC)Oc1ccc([N+](=O)[O-])cc1', 'NO'),
  ('CC(C)(C)C(O)/C(=C\c1ccc(Cl)cc1Cl)n1cncn1 (centres undefined)', 'NO'),
  ('CC1(c2ccc(Oc3ccccc3)cc2)OC(=O)N(Nc2ccccc2)C1=O (centres undefined)', 'NO'),
  ('CCN(CC)C(=O)SCc1ccc(Cl)cc1', 'NO'),
  ('COc1nn(CSP(=S)(OC)OC)c(=O)s1', 'NO');

Now examine the next entry.
// return assay outcome for `CC(C)OC(=O)Nc1cccc(Cl)c1`
NO

---

# Read-out: CYP4A11 (gene 1579)
# protocolNotes: LTEA_HepaRG_CYP4A11: Life Technologies and Expression Analysis (LTEA) Assay for CYP4A11 using HepaRG (AID 2283486)
# conditionNotes: mRNA level, 48 h; actives raise or lower the signal
Active and inactive are the calls of the source. How the source made its calls: active means hit-call score of the fitted dose curve at least 0.9, where 1 is the maximum; inactive means score below 0.9.
Valid outcomes are listed here; reply with one: 1 (active), 0 (inactive)

Take a look at these entries with their results.
INSERT INTO results (compound, classlabel) VALUES
  ('C#CCN1C(=O)COc2cc(F)c(N3C(=O)C4=C(CCCC4)C3=O)cc21', 1),
  ('CNC(=O)/C=C(\C)OP(=O)(OC)OC', 0),
  ('CCCN(CCC)c1c([N+](=O)[O-])cc(C(F)(F)F)cc1[N+](=O)[O-]', 0);

Now examine the next entry.
// return assay outcome for CC1(c2ccc(Oc3ccccc3)cc2)OC(=O)N(Nc2ccccc2)C1=O (stereo unspecified)
1

---

# Read-out: CYP2C8 (gene 1558)
# protocolNotes: LTEA_HepaRG_CYP2C8: Life Technologies and Expression Analysis (LTEA) Assay for CYP2C8 using HepaRG (AID 2283483)
# conditionNotes: mRNA level, 48 h; actives raise or lower the signal
Active and inactive are the calls of the source. The calls were made as follows: active = hit-call score of the fitted dose curve at least 0.9, where 1 is the maximum; inactive = score below 0.9.
Valid outcomes are listed here; reply with one: Yes = active, No = inactive

Take a look at these entries with their results.
INSERT INTO results (compound, classlabel) VALUES
  ('CCC(C)(NC(=O)c1cc(Cl)c(C)c(Cl)c1)C(=O)CCl (stereo unspecified)', 'Yes'),
  ('CNC(=O)CSP(=S)(OC)OC', 'No'),
  ('C#CCN1C(=O)COc2cc(F)c(N3C(=O)C4=C(CCCC4)C3=O)cc21', 'No'),
  ('CNC(=O)Oc1cccc(N=CN(C)C)c1', 'No'),
  ('COP(=S)(OC)Oc1ccc([N+](=O)[O-])cc1', 'No');

Now examine the next entry.
// return assay outcome for CC[C@H](C)[C@H]1O[C@]2(C=C[C@@H]1C)C[C@@H]1C[C@@H](C/C=C(\C)[C@@H](O[C@H]3C[C@H](OC)[C@@H](O[C@H]4C[C@H](OC)[C@@H](O)[C@H](C)O4)[C@H](C)O3)[C@@H](C)/C=C/C=C3\CO[C@@H]4[C@H](O)C(C)=C[C@@H](C(=O)O1)[C@]34O)O2 (tested in a mixture with another compound)
Yes

---

# protocolNotes: CCTE_Mundy_HCI_Cortical_NOG_NeuriteLength: CCTE's Neurite Outgrowth Assay in rat cortical cells for Neurite Length, Mundy Lab (AID 2284213)
Active and inactive are the calls of the source. The calls were made as follows: active = hit-call score of the fitted dose curve at least 0.9, where 1 is the maximum; inactive = score below 0.9.
Valid outcomes are listed here; reply with one: 1 for active, 0 for inactive

Take a look at these entries with their results.
INSERT INTO assay_data (compound, classlabel) VALUES
  ('O=S(=O)(O)C(F)(F)C(F)(F)C(F)(F)C(F)(F)C(F)(F)C(F)(F)C(F)(F)C(F)(F)F', 0),
  ('O=C(O)C(F)(F)C(F)(F)C(F)(F)C(F)(F)C(F)(F)C(F)(F)C(F)(F)F', 0);

Now examine the next entry.
// return assay outcome for CC1(c2ccc(Oc3ccccc3)cc2)OC(=O)N(Nc2ccccc2)C1=O (stereo not drawn)
1

---

# protocolNotes: CCTE_Padilla_ZF_144hpf_TERATOSCORE: (Legacy) CCTE's 144 Hour Post-fertilization zebrafish Assay Teratoscore, Padilla Lab (AID 2283679);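 note: zebrafish embryos with chorions exposed by immersion from 6-8 hpf to 5 dpf with daily renewal; teratogenicity score from eye scoring of death hatching and malformations at 144 hpf; higher score means more developmental defects relative to DMSO baseline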
Active and inactive are the calls of the source. The calls were made as follows: active = hit-call score of the fitted dose curve at least 0.9, where 1 is the maximum; inactive = score below 0.9.
Valid outcomes are listed here; reply with one: active, inactive

INSERT INTO assay_data (compound, classlabel) VALUES
  ('COP(=S)(OC)Oc1ccc([N+](=O)[O-])cc1', 'active'),
  ('CCCN(CCOc1c(Cl)cc(Cl)cc1Cl)C(=O)n1ccnc1', 'active');

Now examine the next entry.
// return assay outcome for CC1(C)C(C=C(Cl)Cl)C1C(=O)OC(C#N)c1ccc(F)c(Oc2ccccc2)c1 (stereo not drawn)
active

---

# Read-out: Apolipoprotein A-V (APOA5) gene, APOA5 (gene 116519)
# protocolNotes: LTEA_HepaRG_APOA5: Life Technologies and Expression Analysis (LTEA) Assay for Apolipoprotein A-V (APOA5) gene using HepaRG (AID 2283474)
# conditionNotes: mRNA level, 48 h; actives raise or lower the signal
Activity calls are given as the source filed them. The calls were made as follows: active = hit-call score of the fitted dose curve at least 0.9, where 1 is the maximum; inactive = score below 0.9.
Valid outcomes are listed here; reply with one: TRUE for active, FALSE for inactive

// return assay outcome for `COP(=S)(OC)Oc1ccc(SC)c(C)c1`
FALSE

Field entry: `CNC(=O)CSP(=S)(OC)OC`
FALSE

Field entry: CC1(C)C(C=C(Cl)Cl)C1C(=O)OC(C#N)c1ccc(F)c(Oc2ccccc2)c1 (stereo not drawn)
FALSE

Field entry: `N#CN`
FALSE

Field entry: `O=C(O)COc1ccc(Cl)cc1Cl`
FALSE

Field entry: `O=C(Nc1ccccc1)Nc1cnns1`
FALSE

Field entry: `O=C1c2ccccc2C(=O)N1SC(Cl)(Cl)Cl`
FALSE

---

# Read-out: Keratin 19 (KRT19), KRT19 (gene 3880)
# protocolNotes: LTEA_HepaRG_KRT19: Life Technologies and Expression Analysis (LTEA) Assay for Keratin 19 (KRT19) using HepaRG (AID 2283512)
# conditionNotes: mRNA level, 48 h; actives raise or lower the signal
Calls of active or inactive are those of the source. Rule for the calls: active = hit-call score of the fitted dose curve at least 0.9, where 1 is the maximum; inactive = score below 0.9.
Valid outcomes are listed here; reply with one: active, inactive

Take a look at these entries with their results.
INSERT INTO measurements (compound, classlabel) VALUES
  ('O=C(Nc1ccccc1)Nc1cnns1', 'active'),
  ('CC(C)(C)C(O)/C(=C\c1ccc(Cl)cc1Cl)n1cncn1 (stereo unspecified)', 'inactive'),
  ('COP(=S)(OC)Oc1ccc([N+](=O)[O-])cc1', 'inactive'),
  ('CCCN(CCOc1c(Cl)cc(Cl)cc1Cl)C(=O)n1ccnc1', 'active'),
  ('CNC(=O)/C=C(\C)OP(=O)(OC)OC', 'inactive');

// return assay outcome for CC1(C)C(C=C(Cl)Cl)C1C(=O)OC(C#N)c1ccc(F)c(Oc2ccccc2)c1 (stereo unspecified)
inactive
